Target: Neuronal acetylcholine receptor; alpha3/beta4 (Homo sapiens, UniProt P30926+P32297)
Sequence (P30926 whole entry): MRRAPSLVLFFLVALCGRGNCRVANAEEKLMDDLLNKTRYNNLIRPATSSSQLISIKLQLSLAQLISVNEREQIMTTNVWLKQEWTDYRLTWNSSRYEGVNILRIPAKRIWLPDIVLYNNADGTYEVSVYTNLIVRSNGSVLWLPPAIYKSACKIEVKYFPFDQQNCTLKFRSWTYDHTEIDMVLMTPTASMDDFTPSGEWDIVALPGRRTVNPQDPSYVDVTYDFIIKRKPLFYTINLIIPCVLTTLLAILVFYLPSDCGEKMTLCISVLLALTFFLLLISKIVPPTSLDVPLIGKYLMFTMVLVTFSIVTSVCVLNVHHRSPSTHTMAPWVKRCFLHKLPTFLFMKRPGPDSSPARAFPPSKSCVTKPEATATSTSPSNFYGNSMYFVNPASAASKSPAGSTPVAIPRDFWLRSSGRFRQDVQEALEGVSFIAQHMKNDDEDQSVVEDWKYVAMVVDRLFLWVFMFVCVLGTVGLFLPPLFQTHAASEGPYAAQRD
Sequence (P32297 whole entry): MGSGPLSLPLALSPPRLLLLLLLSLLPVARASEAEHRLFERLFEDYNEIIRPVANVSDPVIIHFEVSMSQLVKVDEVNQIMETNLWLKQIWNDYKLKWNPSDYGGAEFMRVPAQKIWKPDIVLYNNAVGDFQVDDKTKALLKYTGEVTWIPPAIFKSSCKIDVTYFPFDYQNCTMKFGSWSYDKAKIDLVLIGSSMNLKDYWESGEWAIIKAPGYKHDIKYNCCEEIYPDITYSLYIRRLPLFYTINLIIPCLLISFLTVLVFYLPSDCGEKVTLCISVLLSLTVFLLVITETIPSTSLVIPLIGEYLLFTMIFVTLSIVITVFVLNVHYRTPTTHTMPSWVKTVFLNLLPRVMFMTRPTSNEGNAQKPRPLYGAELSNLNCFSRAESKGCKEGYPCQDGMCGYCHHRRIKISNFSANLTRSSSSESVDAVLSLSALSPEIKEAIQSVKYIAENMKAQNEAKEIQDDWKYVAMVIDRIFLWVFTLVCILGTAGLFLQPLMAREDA
Assay: Agonist activity at alpha3beta4 nicotinic receptor expressed in human HEK cells assessed as intracellular calcium […] by FLIPR relative to control
Format: functional, cell-based
Conditions: HEK293
METRIC NAME: Efficacy (%)
Give a bare numeral; the unit % is implied.

Illustrative cases are given below, each with its answer.
What does the data say about its Efficacy? Entry: Cl.Nc1cncc(-c2ccccc2O[C@H]2C[C@@H]3CNC[C@H]2C3)c1 (racemic) 80.5

What does the data say about its Efficacy? Entry: c1cncc(-c2ccccc2O[C@@H]2C[C@H]3CNC[C@@H]2C3)c1 46

What does the data say about its Efficacy? Entry: CS(=O)(=O)Nc1ccncc1-c1ccccc1O[C@H]1C[C@@H]2CNC[C@H]1C2.Cl (racemic) 117

Switching to the query record.
What does the data say about its Efficacy? Entry: COc1ccncc1-c1ccccc1O[C@H]1C[C@@H]2CNC[C@H]1C2.Cl (racemic) 49

====

Biological target: Neuronal acetylcholine receptor; alpha3/beta4 (Homo sapiens, UniProt P30926+P32297)
Experiment: Displacement of [3H]epibatidine from alpha3beta4 nicotinic receptor expressed in human HEK293 cells
Format: cell-based
Ki by entry:
Give a bare numeral; the unit nM is implied.

Illustrative cases are given below, each with its answer.
What does the data say about its Ki? Entry: CS(=O)(=O)Nc1cncc(-c2ccccc2O[C@H]2C[C@@H]3CNC[C@H]2C3)c1.Cl 0.158

What does the data say about its Ki? Entry: CS(=O)(=O)Nc1cncc(-c2ccccc2O[C@@H]2C[C@H]3CNC[C@@H]2C3)c1.Cl 1.33

What does the data say about its Ki? Entry: CCS(=O)(=O)Nc1cncc(-c2ccccc2O[C@H]2C[C@@H]3CNC[C@H]2C3)c1.Cl (racemic) 0.149

What does the data say about its Ki? Entry: Cl.c1cncc(-c2ccccc2O[C@H]2C[C@@H]3CNC[C@H]2C3)c1 1.21

What does the data say about its Ki? Entry: COc1cncc(-c2ccccc2O[C@H]2C[C@@H]3CNC[C@H]2C3)c1.Cl (racemic) 94.1

Switching to the query record.
What does the data say about its Ki? Entry: c1cncc(-c2ccccc2O[C@@H]2C[C@H]3CNC[C@@H]2C3)c1 16.9

====

Target: Neuronal acetylcholine receptor; alpha3/beta4 (Homo sapiens, UniProt P30926+P32297)
Experiment: Displacement of [3H]epibatidine from alpha3beta4 nicotinic receptor expressed in human HEK293 cells
pKi: −log10 of the molar value.
Lab note: anything with pKi at or over 9 counts as True; the rest go in False.

Does the compound Cl.Oc1cncc(-c2ccccc2O[C@H]2C[C@@H]3CNC[C@H]2C3)c1 (racemic) have recorded pKi that is 9 or more? True

Does the compound Cl.Fc1cncc(-c2ccccc2O[C@H]2C[C@@H]3CNC[C@H]2C3)c1 (racemic) have recorded pKi that is 9 or more? False

Does the compound CC(=O)Nc1cncc(-c2ccccc2O[C@H]2C[C@@H]3CNC[C@H]2C3)c1.Cl (racemic) have recorded pKi that is 9 or more? False

Does the compound NC(=O)c1cncc(-c2ccccc2O[C@@H]2C[C@H]3CNC[C@@H]2C3)c1 (stereo in doubt) have recorded pKi that is 9 or more? False

Does the compound Cl.NC(=O)c1cncc(-c2ccccc2O[C@H]2C[C@@H]3CNC[C@H]2C3)c1 (stereo in doubt) have recorded pKi that is 9 or more? False

Does the compound Cl.Oc1cncc(-c2ccccc2O[C@@H]2C[C@H]3CNC[C@@H]2C3)c1 have recorded pKi that is 9 or more? False

Does the compound CS(=O)(=O)Nc1cncc(-c2ccccc2O[C@H]2C[C@@H]3CNC[C@H]2C3)c1.Cl (racemic) have recorded pKi that is 9 or more? True

Does the compound CC(C)S(=O)(=O)Nc1cncc(-c2ccccc2O[C@H]2C[C@@H]3CNC[C@H]2C3)c1.Cl (racemic) have recorded pKi that is 9 or more? True

Continuing:
Does the compound Cl.Oc1ccncc1-c1ccccc1O[C@H]1C[C@@H]2CNC[C@H]1C2 (racemic) have recorded pKi that is 9 or more? False

Does the compound CS(=O)(=O)Nc1ccncc1-c1ccccc1O[C@H]1C[C@@H]2CNC[C@H]1C2.Cl (racemic) have recorded pKi that is 9 or more? True
